Assign IC50 to each entry below.
- SYSTEM_UNDER_TEST: DRB1*12:01 (Homo sapiens, UniProt P01903+P01911, A100R/A169T/D57E/D86V/F55L/H45Y/K41T/L162R/M171V/P40S/Q125H/Q178H/Q39Y/Q99D/R42G/S66L/T262R/V114A/V67L/W38E/Y59H/Y61H/Y89S)
- PROCEDURE_DETAILS: biochemical
Where a SMILES comes first, the peptide text is derived from it.

// for each compound in input: emit IC50
1. CC[C@H](C)[C@H](NC(=O)CNC(=O)[C@H](CC(=O)O)NC(=O)[C@H](CCCCN)NC(=O)[C@H](CC(N)=O)NC(=O)[C@H](C)NC(=O)CNC(=O)[C@H](Cc1ccc(O)cc1)NC(=O)[C@@H]1CCCN1C(=O)[C@@H](N)CC(C)C)C(=O)N[C@H](C(=O)N[C@@H](Cc1c[nH]c2ccccc12)C(=O)N[C@H](C(=O)N[C@@H](C)C(=O)N[C@H](C(=O)O)[C@@H](C)O)C(C)C)[C@@H](C)CC [Ncl_25] (H-LPYGANKDGIIWVAT-OH)
2. CC[C@H](C)[C@H](NC(=O)CNC(=O)[C@H](CC(=O)O)NC(=O)[C@H](CCCCN)NC(=O)[C@@H](N)CC(N)=O)C(=O)N[C@H](C(=O)N[C@@H](Cc1c[nH]c2ccccc12)C(=O)N[C@H](C(=O)N[C@@H](C)C(=O)N[C@H](C(=O)N[C@@H](CCC(=O)O)C(=O)NCC(=O)N[C@@H](C)C(=O)N[C@@H](CC(C)C)C(=O)N[C@@H](CC(N)=O)C(=O)O)[C@@H](C)O)C(C)C)[C@@H](C)CC [Ncl_26] (H-NKDGIIWVATEGALN-OH)
3. CC(C)C[C@H](NC(=O)[C@H](CCC(N)=O)NC(=O)[C@H](CC(N)=O)NC(=O)[C@H](CC(C)C)NC(=O)[C@H](CCCNC(=N)N)NC(=O)[C@H](CC(=O)O)NC(=O)[C@H](CC(C)C)NC(=O)[C@H](CC(C)C)NC(=O)[C@H](CC(C)C)NC(=O)[C@H](CC(C)C)NC(=O)[C@H](C)NC(=O)[C@H](CC(C)C)NC(=O)[C@H](C)NC(=O)[C@H](C)NC(=O)[C@@H](N)CC(=O)O)C(=O)O [Ncl_44] (H-DAALALLLLDRLNQL-OH)
4. CSCC[C@H](NC(=O)[C@H](CCCCN)NC(=O)[C@H](CO)NC(=O)[C@H](CCC(=O)O)NC(=O)[C@H](CC(C)C)NC(=O)[C@H](CCC(N)=O)NC(=O)[C@H](CC(N)=O)NC(=O)[C@H](CC(C)C)NC(=O)[C@H](CCCNC(=N)N)NC(=O)[C@H](CC(=O)O)NC(=O)[C@H](CC(C)C)NC(=O)[C@H](CC(C)C)NC(=O)[C@H](CC(C)C)NC(=O)[C@@H](N)CC(C)C)C(=O)N[C@@H](CO)C(=O)O [Ncl_45] (H-LLLLDRLNQLESKMS-OH)
5. CC(C)C[C@H](NC(=O)[C@H](Cc1ccc(O)cc1)NC(=O)[C@H](Cc1ccc(O)cc1)NC(=O)[C@H](Cc1ccccc1)NC(=O)[C@H](Cc1ccc(O)cc1)NC(=O)[C@H](Cc1c[nH]c2ccccc12)NC(=O)[C@H](CCCNC(=N)N)NC(=O)[C@@H]1CCCN1)C(=O)NCC(=O)N[C@H](C(=O)NCC(=O)N1CCC[C@H]1C(=O)N[C@@H](CCC(=O)O)C(=O)N[C@@H](C)C(=O)NCC(=O)O)[C@@H](C)O [Ncl_22] (H-PRWYFYYLGTGPEAG-OH)

19.1 µM
> 40 µM
0.824 µM
0.481 µM
23.3 µM

* * *

- SYSTEM_UNDER_TEST: DRB3*01:01 (Homo sapiens, UniProt P01903+P79483)
- PROCEDURE_DETAILS: biochemical
Where a SMILES comes first, the peptide text is derived from it.
Assign pIC50 to each entry below.
Answers are plain numbers, as −log10 of the molar value.

MOLECULE	MEASUREMENT
CC[C@H](C)[C@H](NC(=O)CNC(=O)[C@H](CC(=O)O)NC(=O)[C@H](CCCCN)NC(=O)[C@@H](N)CC(N)=O)C(=O)N[C@H](C(=O)N[C@@H](Cc1c[nH]c2ccccc12)C(=O)N[C@H](C(=O)N[C@@H](C)C(=O)N[C@H](C(=O)N[C@@H](CCC(=O)O)C(=O)NCC(=O)N[C@@H](C)C(=O)N[C@@H](CC(C)C)C(=O)N[C@@H](CC(N)=O)C(=O)O)[C@@H](C)O)C(C)C)[C@@H](C)CC [Ncl_26] (H-NKDGIIWVATEGALN-OH)	4.84

// for each molecule in input: emit pIC50
1. CC(C)C[C@H](NC(=O)[C@H](CC(N)=O)NC(=O)[C@H](CCCCN)NC(=O)[C@@H](NC(=O)[C@H](CCCNC(=N)N)NC(=O)[C@H](CO)NC(=O)[C@H](Cc1ccc(O)cc1)NC(=O)[C@@H](NC(=O)[C@H](Cc1ccc(O)cc1)NC(=O)[C@H](Cc1ccccc1)NC(=O)[C@H](CO)NC(=O)[C@@H]1CCCN1C(=O)[C@H](CCCCN)NC(=O)[C@@H](NC(=O)[C@@H](N)CC(C)C)C(C)C)C(C)C)C(C)C)C(=O)O [Env_11] (H-LVKPSFYVYSRVKNL-OH)
2. CSCC[C@H](NC(=O)[C@H](CCCCN)NC(=O)[C@H](CO)NC(=O)[C@H](CCC(=O)O)NC(=O)[C@H](CC(C)C)NC(=O)[C@H](CCC(N)=O)NC(=O)[C@H](CC(N)=O)NC(=O)[C@H](CC(C)C)NC(=O)[C@H](CCCNC(=N)N)NC(=O)[C@H](CC(=O)O)NC(=O)[C@H](CC(C)C)NC(=O)[C@H](CC(C)C)NC(=O)[C@H](CC(C)C)NC(=O)[C@@H](N)CC(C)C)C(=O)N[C@@H](CO)C(=O)O [Ncl_45] (H-LLLLDRLNQLESKMS-OH)
3. CC[C@H](C)[C@H](NC(=O)[C@H](CCC(N)=O)NC(=O)[C@H](CC(=O)O)NC(=O)[C@@H](N)CC(=O)O)C(=O)NCC(=O)N[C@@H](Cc1ccc(O)cc1)C(=O)N[C@@H](Cc1ccc(O)cc1)C(=O)N[C@@H](CCCNC(=N)N)C(=O)N[C@@H](CCCNC(=N)N)C(=O)N[C@@H](C)C(=O)N[C@H](C(=O)N[C@@H](CCCNC(=N)N)C(=O)N[C@@H](CCCNC(=N)N)C(=O)N[C@H](C(=O)N[C@@H](CCCNC(=N)N)C(=O)O)[C@@H](C)CC)[C@@H](C)O [Ncl_P17] (H-DDQIGYYRRATRRIR-OH)

1. 6.98
2. 6.87
3. 5.99

* * *

- SYSTEM_UNDER_TEST: DRB1*13:02 (Homo sapiens, UniProt P01903+P01911, A100E/A169T/K41T/L162R/M171V/P40S/Q125H/Q178H/Q39Y/Q99D/R42S/S66N/T262R/V115G/W38E/Y61H)
- Sequence (P01903 26-254 limits assumed, other chains not shown): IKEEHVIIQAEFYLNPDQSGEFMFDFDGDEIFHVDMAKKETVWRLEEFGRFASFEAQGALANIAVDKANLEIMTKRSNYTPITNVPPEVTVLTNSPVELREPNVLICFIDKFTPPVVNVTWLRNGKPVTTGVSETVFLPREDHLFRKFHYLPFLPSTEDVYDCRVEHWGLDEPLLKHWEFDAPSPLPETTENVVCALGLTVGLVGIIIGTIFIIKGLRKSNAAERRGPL
- PROCEDURE_DETAILS: biochemical
Where a SMILES comes first, the peptide text is derived from it.
OBSERVABLE: IC50

COMPOUND	MEASUREMENT
CC[C@H](C)[C@H](NC(=O)[C@H](CCCNC(=N)N)NC(=O)[C@H](CCCNC(=N)N)NC(=O)[C@@H](NC(=O)[C@H](C)NC(=O)[C@H](CCCNC(=N)N)NC(=O)[C@H](CCCNC(=N)N)NC(=O)[C@H](Cc1ccc(O)cc1)NC(=O)[C@@H](N)Cc1ccc(O)cc1)[C@@H](C)O)C(=O)N[C@@H](CCCNC(=N)N)C(=O)NCC(=O)NCC(=O)N[C@@H](CC(=O)O)C(=O)NCC(=O)N[C@@H](CCCCN)C(=O)O [Ncl_P18] (H-YYRRATRRIRGGDGK-OH)	> 40 µM
CC(C)C[C@H](NC(=O)[C@H](C)NC(=O)[C@@H](NC(=O)[C@H](Cc1ccccc1)NC(=O)[C@H](Cc1c[nH]c2ccccc12)NC(=O)[C@@H](N)CO)[C@@H](C)O)C(=O)N[C@H](C(=O)N[C@@H](CCC(N)=O)C(=O)N[C@@H](Cc1c[nH]cn1)C(=O)NCC(=O)N[C@@H](CCCCN)C(=O)N[C@@H](CCC(=O)O)C(=O)N[C@@H](CC(=O)O)C(=O)N[C@@H](CC(C)C)C(=O)N[C@@H](CCCCN)C(=O)O)[C@@H](C)O [Ncl_11] (H-SWFTALTQHGKEDLK-OH)	> 40 µM

Turning to the following compound.
Could you please provide reported IC50 for CC[C@H](C)[C@H](NC(=O)CNC(=O)[C@H](CC(=O)O)NC(=O)[C@H](CCCCN)NC(=O)[C@H](CC(N)=O)NC(=O)[C@H](C)NC(=O)CNC(=O)[C@H](Cc1ccc(O)cc1)NC(=O)[C@@H]1CCCN1C(=O)[C@@H](N)CC(C)C)C(=O)N[C@H](C(=O)N[C@@H](Cc1c[nH]c2ccccc12)C(=O)N[C@H](C(=O)N[C@@H](C)C(=O)N[C@H](C(=O)O)[C@@H](C)O)C(C)C)[C@@H](C)CC [Ncl_25] (H-LPYGANKDGIIWVAT-OH) ? Thanks!
> 40 µM
